PROTOCOL_DETAILS: Inhibition of AP-1/NF-kappaB transfected in human jurkat T cells assessed as inhibition of transcriptional activation
Type: cell-based
pIC50: −log10 of the molar value.
Each item that follows carries a reported pIC50.
ASSAY_METRIC: pIC50

{"columns": ["COMPOUND", "MEASURED_RESULT"],
 "data": [
  ["CCOC(=O)c1cnc(CC2=CCCCC2)nc1NN1C(=O)C=C(C)C1=O", 5.70],
  ["COc1cccc2c(NN3C(=O)C=C(C)C3=O)nc(-c3cccs3)nc12", 7.30],
  ["CCOC(=O)c1cnc(-c2cnc3ccccc3c2)nc1NN1C(=O)C=C(C)C1=O", 5.00],
  ["CCOC(=O)c1cnc(-c2ccsc2)nc1NN1C(=O)C=C(C)C1=O", 7.00],
  ["CCOC(=O)c1cnc(C(C)(C)C)nc1NN1C(=O)C=C(C)C1=O", 6.00],
  ["COc1cccc2nc(-c3cccs3)nc(NN3C(=O)C=C(C)C3=O)c12 [AS-602868]", 8.10],
  ["CC1=CC(=O)N(Nc2nc(-c3cccs3)ncc2-c2nnn(C)n2)C1=O", 6.70],
  ["CCOC(=O)c1cnc(-c2cc(Cl)nc(Cl)c2)nc1NN1C(=O)C=C(C)C1=O", 5.70],
  ["CC1=CC(=O)N(Nc2nc(C(F)(F)F)nc3cc(N4CCCCC4)ccc23)C1=O", 6.70],
  ["CCOC(=O)c1cnc(Cc2ccccc2)nc1NN1C(=O)C=C(C)C1=O", 5.16],
  ["CCOC(=O)c1cnc(S(=O)(=O)c2ccccc2)nc1NN1C(=O)C=C(C)C1=O", 5.00],
  ["CSc1ccc2nc(C(F)(F)F)nc(NN3C(=O)C=C(C)C3=O)c2c1", 7.10],
  ["CCOC(=O)c1cnc(CC)nc1NN1C(=O)C=C(C)C1=O", 5.00],
  ["CCOC(=O)c1cnc(-c2cc(Cl)cc(Cl)c2)nc1NN1C(=O)C=C(C)C1=O", 6.52],
  ["CCOC(=O)c1cnc(-c2cccs2)nc1NN1C(=O)C=C(C)C1=O", 7.70],
  ["COc1ccc2nc(-c3cccs3)nc(NN3C(=O)C=C(C)C3=O)c2c1", 8.52],
  ["CC1=CC(=O)N(Nc2nc(C(F)(F)F)nc3cc(N(C)C)ccc23)C1=O", 7.70],
  ["CC1=CC(=O)N(Nc2nc(C(F)(F)F)nc3cccc(C)c23)C1=O", 6.40],
  ["CCOC(=O)c1cnc(-c2ccccc2)nc1NN1C(=O)C=C(C)C1=O", 7.00],
  ["CCOC(=O)c1cnc(-c2ccccc2)nc1N(C(C)=O)N1C(=O)C=C(C)C1=O", 5.40],
  ["CCOC(=O)c1cnc(-c2ccc(Cl)cc2)nc1NN1C(=O)C=C(C)C1=O", 6.52],
  ["CCOC(=O)c1cnc(-c2ccc(OC)cc2)nc1NN1C(=O)C=C(C)C1=O", 6.05],
  ["CCOC(=O)c1cnc(-c2ccc(Cl)s2)nc1NN1C(=O)C=C(C)C1=O", 6.52],
  ["CCOC(=O)c1cnc(-c2ccc(C(F)(F)F)cc2)nc1NN1C(=O)C=C(C)C1=O", 6.40],
  ["CCOC(=O)c1cnc(C(F)(F)F)nc1NN1C(=O)C=CC1=O", 5.00],
  ["CCOC(=O)c1cnc(-c2ccc(F)cc2)nc1NN1C(=O)C=C(C)C1=O", 6.16],
  ["CCOC(=O)c1cnc(Sc2ccccc2)nc1NN1C(=O)C=C(C)C1=O", 6.00],
  ["CCOC(=O)c1cnc(-c2cccs2)nc1N(C)N1C(=O)C=C(C)C1=O", 6.00],
  ["COc1cc2nc(-c3cccs3)nc(NN3C(=O)C=C(C)C3=O)c2cc1OC", 7.30],
  ["CC1=CC(=O)N(Nc2nc(-c3cccs3)nc3cc(N4CCOCC4)ccc23)C1=O", 6.70],
  ["CC1=CC(=O)N(Nc2nc(-c3ccccc3)nc3ccccc23)C1=O", 7.00],
  ["CC1=CC(=O)N(Nc2nc(-c3cccs3)nc3cccc(F)c23)C1=O", 7.30],
  ["CCOC(=O)c1cnc(C)nc1NN1C(=O)C=C(C)C1=O", 4.80],
  ["COc1cccc2nc(C(F)(F)F)nc(NN3C(=O)C=C(C)C3=O)c12", 8.00],
  ["CC1=CC(=O)N(Nc2nc(C(F)(F)F)nc3ccc([S+](C)[O-])cc23)C1=O (configuration not stated)", 6.00],
  ["COc1ccc2nc(C(F)(F)F)nc(NN3C(=O)C=C(C)C3=O)c2c1", 7.52],
  ["CCOC(=O)c1cnc(CC)nc1N(C)N1C(=O)C=C(C)C1=O", 5.00],
  ["CC1=CC(=O)N(Nc2nc(-c3cccs3)ncc2-c2nc(C)co2)C1=O", 6.70],
  ["CCOC(=O)c1cnc(C(F)(F)F)nc1NN1C(=O)C(C)=C(C)C1=O", 5.00],
  ["CCOC(=O)c1cnc(-c2ccncc2)nc1NN1C(=O)C=C(C)C1=O", 5.22],
  ["CCOC(=O)c1cnc(C(F)(F)F)nc1NN1C(=O)C=C(c2ccccc2)C1=O", 4.70],
  ["CCOC(=O)c1cnc(-c2cccc(Br)c2)nc1NN1C(=O)C=C(C)C1=O", 6.16]
]}
